Test system: Plasmodium falciparum TM91C235
Assay: In vitro antimalarial [3H]-hypoxanthine incorporation assay, TM91C235
Type: cell-based
Settings: Plasmodium falciparum; P. falciparum TM91C235 (multiple drug resistant isolate), 72 hours exposure
quantity_kind: IC50 (µg/mL)
Numeric only. Scale: µg/mL

>  <compound_smiles>
CCc1ccc(NC(=O)NCCCN2C[C@H](C)C[C@@](C)(O)[C@H](O[C@@H]3O[C@H](C)C[C@H](N(C)C)[C@H]3O)[C@@H](C)[C@H](O[C@H]3C[C@@](C)(OC)[C@@H](O)[C@H](C)O3)[C@@H](C)C(=O)O[C@H](CC)[C@@](C)(O)[C@H](O)[C@H]2C)cc1

>  <quantity_kind>
IC50

>  <value_measured>
0.0933

$$$$

Shifting focus to the molecule that follows.
Any idea what its IC50 is? The molecule is "CC[C@H]1OC(=O)[C@H](C)[C@@H](O[C@H]2C[C@@](C)(OC)[C@@H](O)[C@H](C)O2)[C@H](C)[C@@H](O[C@@H]2O[C@H](C)C[C@H](N(C)C)[C@H]2O)[C@](C)(O)C[C@@H](C)CN(CCCNC(=S)NC(c2ccccc2)c2ccccc2)[C@H](C)[C@@H](O)[C@]1(C)O" 0.056

* * *

System: Plasmodium falciparum TM91C235
Assay: In vitro antimalarial [3H]-hypoxanthine incorporation assay, TM91C235
Type: cell-based
Conditions: Plasmodium falciparum; P. falciparum TM91C235 (multiple drug resistant isolate), 72 hours exposure
IC50 values for the compounds below.
Kindly write the number and append the unit.

>  <compound>
CC[C@H]1OC(=O)[C@H](C)[C@@H](O[C@H]2C[C@@](C)(OC)[C@@H](O)[C@H](C)O2)[C@H](C)[C@@H](O[C@@H]2O[C@H](C)C[C@H](N(C)C)[C@H]2O)[C@](C)(O)C[C@@H](C)CN(CCCNC(=O)NC2CCCCC2)[C@H](C)[C@@H](O)[C@]1(C)O [Example 58]

>  <test_target>
Plasmodium falciparum TM91C235

>  <IC50>
0.377 µg/mL

$$$$

Let us examine a further case.
Reported IC50 for CC[C@H]1OC(=O)[C@H](C)[C@@H](O[C@H]2C[C@@](C)(OC)[C@@H](O)[C@H](C)O2)[C@H](C)[C@@H](O[C@@H]2O[C@H](C)C[C@H](N(C)C)[C@H]2O)[C@](C)(O)C[C@@H](C)CN(CCCNC(=O)NC(C)(C)C)[C@H](C)[C@@H](O)[C@]1(C)O [Example 53] : what is it? 0.713 µg/mL

* * *

Tested on: Plasmodium falciparum TM91C235
Assay: In vitro antimalarial [3H]-hypoxanthine incorporation assay, TM91C235
Type: cell-based
Conditions: Plasmodium falciparum; P. falciparum TM91C235 (multiple drug resistant isolate), 72 hours exposure
quantity_kind: IC50 (µg/mL)
Expressed in µg/mL, but write only the number.

Recorded IC50, per entry:
>  <compound_smiles>
CC[C@H]1OC(=O)[C@H](C)[C@@H](O[C@H]2C[C@@](C)(OC)[C@@H](O)[C@H](C)O2)[C@H](C)[C@@H](O[C@@H]2O[C@H](C)C[C@H](N(C)C)[C@H]2O)[C@](C)(O)C[C@@H](C)CN(CCCNC(=O)Nc2ccc(C#N)cc2)[C@H](C)[C@@H](O)[C@]1(C)O

>  <IC50 (µg/mL)>
0.193

$$$$
>  <compound_smiles>
CC[C@H]1OC(=O)[C@H](C)[C@@H](O[C@H]2C[C@@](C)(OC)[C@@H](O)[C@H](C)O2)[C@H](C)[C@@H](O[C@@H]2O[C@H](C)C[C@H](N(C)C)[C@H]2O)[C@](C)(O)C[C@@H](C)CN(CCCNC(=S)Nc2ccc(OCc3ccccc3)cc2)[C@H](C)[C@@H](O)[C@]1(C)O.O=CO

>  <IC50 (µg/mL)>
0.172

$$$$

Data request, read-out IC50, for "CC[C@H]1OC(=O)[C@H](C)[C@@H](O[C@H]2C[C@@](C)(OC)[C@@H](O)[C@H](C)O2)[C@H](C)[C@@H](O[C@@H]2O[C@H](C)C[C@H](N(C)C)[C@H]2O)[C@](C)(O)C[C@@H](C)CN(CCCNC(=O)NC(C)(C)CC(C)(C)C)[C@H](C)[C@@H](O)[C@]1(C)O.O=CO" 0.182
